System: normal primary NK cells, pool 1 (3 donors), resting (IL-2 0 ng/mL)
Experiment: percent inhibition of viability; higher = more inhibition
Details: 72 h; 10 nM
Observed Property: percent inhibition of viability

Examples with answers:
CC[C@@H]1C(=O)N(C)c2cnc(Nc3ccc(C(=O)N[C@H]4CC[C@H](N5CCN(CC6CC6)CC5)CC4)cc3OC)nc2N1C(C)C [Volasertib] (max concentration tested 1000 nM) :: -4.01%
CNCc1ccc(-c2[nH]c3cc(F)cc4c3c2CCNC4=O)cc1 [Rucaparib] (max concentration tested 10000 nM) :: 19.2%
CN(C)/N=N/c1[nH]cnc1C(N)=O [Dacarbazine] (max concentration tested 10000 nM) :: -16.7%

From here, focus on the item given below.
Please look up its percent inhibition of viability: O=c1ncn2nc(Sc3ccc(F)cc3F)ccc2c1-c1c(Cl)cccc1Cl [VX 745] (max concentration tested 10000 nM) 12.2%

====

Tested on: KHYG-1 (IL-2 2.5 ng/mL)
Assay: percent inhibition of viability; higher = more inhibition
Conditions: 72 h; 1000 nM
Observed Property: percent inhibition of viability
Please append the unit to your numeric answer.

COc1cc2c(cc1-c1c(C)noc1C)ncc1[nH]c(=O)n([C@H](C)c3ccccn3)c12 [I-BET151] (max concentration tested 10000 nM) :: 72%
CON(C)C(=O)N1N=C(c2cc(F)ccc2F)S[C@@]1(CCCN)c1ccccc1 [ARRY-520] (max concentration tested 1000 nM) :: 103%
O=NN(CCCl)C(=O)NC1CCCCC1 [Lomustine] (max concentration tested 10000 nM) :: -1.68%

Pending molecule:
I would be grateful if you could share the reported percent inhibition of viability for CC(C)N(CCCNC(=O)Nc1ccc(C(C)(C)C)cc1)C[C@H]1O[C@@H](n2cc(Br)c3c(N)ncnc32)[C@H](O)[C@@H]1O [SGC0946] (max concentration tested 10000 nM) . 1.03%

====

Tested on: IMC-1 (IL-2 20 ng/mL)
Assay: percent inhibition of viability; higher = more inhibition
Conditions: 72 h; 10 nM
For each entry below, report its percent inhibition of viability value.
One number for each entry, in %.

Field: example entries. Status: answers known.
C[C@]12C=CC(=O)C=C1CC[C@@H]1[C@@H]2C(=O)C[C@@]2(C)[C@H]1CC[C@]2(O)C(=O)CO [Prednisone] (max concentration tested 10000 nM) :: -0.37
COc1cc(Nc2c(C#N)cnc3cc(OCCCN4CCN(C)CC4)c(OC)cc23)c(Cl)cc1Cl [Bosutinib] (max concentration tested 10000 nM) :: 0.66
C/C(=C\c1csc(C)n1)[C@@H]1C[C@@H]2O[C@]2(C)CCC[C@H](C)[C@H](O)[C@@H](C)C(=O)C(C)(C)[C@@H](O)CC(=O)O1 [Patupilone] (max concentration tested 1000 nM) :: 97
CC[C@H](CO)Nc1nc(NCc2ccccc2)c2ncn(C(C)C)c2n1 [Seliciclib] (max concentration tested 10000 nM) :: -8.7

Please turn your attention to the following entry.
Which percent inhibition of viability reading was recorded for the molecule CN(C[C@@H]1COCCO1)S(=O)(=O)Nc1ccc2ccc3ncc(-c4cnn(C)c4)cc3c(=O)c2c1 [MK-2461] (max concentration tested 10000 nM) ? -0.63

====

Please go through the items and note down their percent inhibition of viability.
Tested on: NK-YS (IL-2 2.5 ng/mL)
Assay: percent inhibition of viability; higher = more inhibition
Conditions: 72 h; 100 nM
Answers are plain numbers, in %.

c1ccc([C@H]2CN3CCSC3=N2)cc1 [Levamisole] (max concentration tested 10000 nM) :: -7.18
Cn1cncc1[C@@](N)(c1ccc(Cl)cc1)c1ccc2c(c1)c(-c1cccc(Cl)c1)cc(=O)n2C [Tipifarnib] (max concentration tested 10000 nM) :: 59.3

May I ask what percent inhibition of viability has been recorded for O=C(NOCC1CC1)c1ccc(F)c(F)c1Nc1ccc(I)cc1Cl (max concentration tested 10000 nM) ? 6.53

====

Provide the reported percent inhibition of viability of each item.
System: DERL-7 (IL-2 2.5 ng/mL)
Assay: percent inhibition of viability; higher = more inhibition
Conditions: 72 h; 1 nM
Numbers only, in %.

The following molecules have reported results that may help.
Cn1cncc1[C@@](N)(c1ccc(Cl)cc1)c1ccc2c(c1)c(-c1cccc(Cl)c1)cc(=O)n2C [Tipifarnib] (max concentration tested 10000 nM) :: 1.19
CN(C)/N=N/c1[nH]cnc1C(N)=O [Dacarbazine] (max concentration tested 10000 nM) :: -2.46
CNc1nc(-c2ccc3c(N)n[nH]c3c2)cc(N2C[C@@H](C(=O)NC3CCCCC3)CC[C@H]2C)n1 (max concentration tested 10000 nM) :: -6.71

Kindly give each listed record's percent inhibition of viability.
1. Cc1nc(N)sc1-c1ccnc(Nc2ccc(N3CCOCC3)cc2)n1 [CYC-116] (max concentration tested 10000 nM)
2. Cc1cc(OCc2nnc(SC3CCCC3)n2-c2cccnc2)ccc1-c1ccc(S(C)(=O)=O)cc1 [NMS-873] (max concentration tested 10000 nM)
3. COc1cc2ncnc(Oc3cccc(NC(=O)Nc4cc(C(C)(C)C(F)(F)F)on4)c3)c2cc1OC (max concentration tested 10000 nM)

1: -3.32; 2: 8.88; 3: -5.16

Required: percent inhibition of viability, one value per molecule below.
1. Nc1cccc2c1C(=O)N(C1CCC(=O)NC1=O)C2=O (stereo not drawn) [Pomalidomide] (max concentration tested 10000 nM)
2. C[C@]12C=CC(=O)C=C1CC[C@@H]1[C@@H]2C(=O)C[C@@]2(C)[C@H]1CC[C@]2(O)C(=O)CO [Prednisone] (max concentration tested 10000 nM)

[-0.13, -1.82]

====

System: SNK-6 (IL-2 2.5 ng/mL)
Test: relative IC50 (inflection point of fitted viability curve, relative to fitted max inhibition); higher = less sensitive
Conditions: 72 h
Observed Property: relative IC50 (nM)
Numbers only, in nM.

Consider the following illustrative entries.
CC[C@@]1(O)C(=O)OCc2c1cc1n(c2=O)Cc2cc3c(CN(C)C)c(O)ccc3nc2-1 [Topotecan] :: 40.2
Cc1ccc(NC(=O)c2ccc(CN3CCN(C)CC3)cc2)cc1Nc1nccc(-c2cccnc2)n1 [Imatinib] :: 4290
C[C@@H](Oc1ccc2[nH]nc(/C=C/c3cnn(CCO)c3)c2c1)c1c(Cl)cncc1Cl :: 15.7

Provide each entry's relative IC50 from the list below.
1. COc1ccc(-c2ccc3c(N4CCOC[C@@H]4C)nc(N4CCOC[C@@H]4C)nc3n2)cc1CO [AZD8055]
2. CC(=O)[C@]1(O)Cc2c(O)c3c(c(O)c2[C@@H](O[C@H]2C[C@H](N)[C@H](O)[C@H](C)O2)C1)C(=O)c1ccccc1C3=O [Idarubicin]

16.3
5.03

Look up relative IC50 with SNK-6 (IL-2 2.5 ng/mL) for this compound: Nc1ccn([C@@H]2O[C@H](CO)[C@@H](O)C2(F)F)c(=O)n1 [Gemcitabine] 6.48

====

Test system: normal NK cells expanded with K562-aAPC
Test: drug sensitivity score (DSS) (DSS units); higher = more sensitive; extreme values may be limits of the assay
Conditions: 72 h; IL-2 2.5 ng/mL
Could you please report measured drug sensitivity score for the items listed next?

CC(C)C[C@H](NC(=O)[C@@H](COC(C)(C)C)NC(=O)[C@H](Cc1ccc(O)cc1)NC(=O)[C@H](CO)NC(=O)[C@H](Cc1c[nH]c2ccccc12)NC(=O)[C@H](Cc1cnc[nH]1)NC(=O)[C@@H]1CCC(=O)N1)C(=O)N[C@@H](CCCNC(=N)N)C(=O)N1CCC[C@H]1C(=O)NNC(N)=O [Goserelin] (max concentration tested 10000 nM) :: 0.04

Give drug sensitivity score for all compounds that follow.
1. CCc1c(C(=O)C(N)=O)c2c(OCC(=O)O)cccc2n1Cc1ccccc1 [Varespladib] (max concentration tested 10000 nM)
2. Cc1ncc(-c2ccnc(Nc3ccc(S(C)(=O)=O)cc3)n2)n1C(C)C [AZD-5438] (max concentration tested 10000 nM)
3. CO[C@@]12[C@H](COC(N)=O)C3=C(C(=O)C(C)=C(N)C3=O)N1C[C@@H]1N[C@@H]12 [Mitomycin C] (max concentration tested 10000 nM)
4. S=C(NCc1ccc2c(c1)OCO2)N1CCN(c2ncnc3c2oc2ccccc23)CC1 [Amuvatinib] (max concentration tested 10000 nM)
5. C[C@@H](Oc1cc(-c2cnn(C3CCNCC3)c2)cnc1N)c1c(Cl)ccc(F)c1Cl [Crizotinib] (max concentration tested 1000 nM)
6. O=C(c1cc(Cc2n[nH]c(=O)c3ccccc23)ccc1F)N1CCN(C(=O)C2CC2)CC1 [Olaparib] (max concentration tested 10000 nM)

0
6.5
1.99
0.55
0.44
3.25

====

Would you mind telling me the reported percent inhibition of viability of each entry?
Tested on: IMC-1 (IL-2 20 ng/mL)
Test: percent inhibition of viability; higher = more inhibition
Settings: 72 h; 1000 nM
Could you kindly put the unit after your number?

// below: answered compounds
CC(C)N(CCCNC(=O)Nc1ccc(C(C)(C)C)cc1)C[C@H]1O[C@@H](n2cc(Br)c3c(N)ncnc32)[C@H](O)[C@@H]1O [SGC0946] (max concentration tested 10000 nM) :: 2.99%
COc1ccc(-c2ccc3c(N4CCOC[C@@H]4C)nc(N4CCOC[C@@H]4C)nc3n2)cc1CO [AZD8055] (max concentration tested 10000 nM) :: 1.86%

Next item in the queue.
Sample O[C@H]1CC[C@H](Nc2ncc3nc(Nc4c(F)cc(F)cc4F)n([C@H]4CCOC4)c3n2)CC1 [Tanzisertib] (max concentration tested 10000 nM) — what was its percent inhibition of viability? -2.89%
